- ASSAY TARGET: S-nitrosoglutathione reductase (GSNOR) (Homo sapiens, UniProt P11766)
- Construct: made in house; host or cells: E. coli
- Sequence (P11766 whole entry): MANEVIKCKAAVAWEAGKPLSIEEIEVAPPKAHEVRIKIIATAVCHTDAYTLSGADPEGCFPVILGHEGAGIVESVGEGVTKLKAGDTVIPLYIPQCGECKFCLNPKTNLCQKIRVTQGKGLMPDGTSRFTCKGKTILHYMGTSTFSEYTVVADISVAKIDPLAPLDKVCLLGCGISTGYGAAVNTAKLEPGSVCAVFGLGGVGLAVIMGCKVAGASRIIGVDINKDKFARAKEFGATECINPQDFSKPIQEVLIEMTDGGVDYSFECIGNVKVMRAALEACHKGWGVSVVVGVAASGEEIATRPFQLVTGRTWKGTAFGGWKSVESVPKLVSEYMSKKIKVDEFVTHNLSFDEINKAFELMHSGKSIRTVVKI
- ASSAY PROCEDURE: GSNOR assay (inhibition of GSNOR activity, NADH absorbance at 340 nm)
- Type: biochemical
- CONDITION CONTEXT: GSNOR inhibitor activity, Tables 1-6; read-out: IC50 range
// IC50 lookup, one value per entry

Known results for compounds:
Cc1cc2cc(O)ccc2cc1-c1ccc(C(=O)O)cc1; < 100 nM
O=c1nc(-c2ccc(-c3ccc4cc(O)ccc4n3)cc2)[nH]o1; < 100 nM
O=C(O)c1ccc(-c2ccc3cc(O)ccc3c2)c(C(F)(F)F)c1; < 100 nM
O=C(O)c1ccc(-c2cc3ccc(O)cc3cc2O)cc1; 1000 to 10000 nM
O=c1c(Oc2ccc(-c3nnn[nH]3)cc2)c(C(F)(F)F)oc2cc(O)ccc12; 1000 to 10000 nM

[Q] Need IC50, item `O=C(O)c1ccc(Nc2c(C(F)(F)F)oc3cc(O)ccc3c2=O)cc1`
[A] 1000 to 10000 nM

[Q] One more compound: `O=C(O)c1ccc(-c2cc3ccc(O)cc3cc2F)cc1`
[A] < 100 nM
